# TARGET OR TEST SYSTEM: ALK (h) (Homo sapiens)
# Sequence (Q9UM73 19-1620): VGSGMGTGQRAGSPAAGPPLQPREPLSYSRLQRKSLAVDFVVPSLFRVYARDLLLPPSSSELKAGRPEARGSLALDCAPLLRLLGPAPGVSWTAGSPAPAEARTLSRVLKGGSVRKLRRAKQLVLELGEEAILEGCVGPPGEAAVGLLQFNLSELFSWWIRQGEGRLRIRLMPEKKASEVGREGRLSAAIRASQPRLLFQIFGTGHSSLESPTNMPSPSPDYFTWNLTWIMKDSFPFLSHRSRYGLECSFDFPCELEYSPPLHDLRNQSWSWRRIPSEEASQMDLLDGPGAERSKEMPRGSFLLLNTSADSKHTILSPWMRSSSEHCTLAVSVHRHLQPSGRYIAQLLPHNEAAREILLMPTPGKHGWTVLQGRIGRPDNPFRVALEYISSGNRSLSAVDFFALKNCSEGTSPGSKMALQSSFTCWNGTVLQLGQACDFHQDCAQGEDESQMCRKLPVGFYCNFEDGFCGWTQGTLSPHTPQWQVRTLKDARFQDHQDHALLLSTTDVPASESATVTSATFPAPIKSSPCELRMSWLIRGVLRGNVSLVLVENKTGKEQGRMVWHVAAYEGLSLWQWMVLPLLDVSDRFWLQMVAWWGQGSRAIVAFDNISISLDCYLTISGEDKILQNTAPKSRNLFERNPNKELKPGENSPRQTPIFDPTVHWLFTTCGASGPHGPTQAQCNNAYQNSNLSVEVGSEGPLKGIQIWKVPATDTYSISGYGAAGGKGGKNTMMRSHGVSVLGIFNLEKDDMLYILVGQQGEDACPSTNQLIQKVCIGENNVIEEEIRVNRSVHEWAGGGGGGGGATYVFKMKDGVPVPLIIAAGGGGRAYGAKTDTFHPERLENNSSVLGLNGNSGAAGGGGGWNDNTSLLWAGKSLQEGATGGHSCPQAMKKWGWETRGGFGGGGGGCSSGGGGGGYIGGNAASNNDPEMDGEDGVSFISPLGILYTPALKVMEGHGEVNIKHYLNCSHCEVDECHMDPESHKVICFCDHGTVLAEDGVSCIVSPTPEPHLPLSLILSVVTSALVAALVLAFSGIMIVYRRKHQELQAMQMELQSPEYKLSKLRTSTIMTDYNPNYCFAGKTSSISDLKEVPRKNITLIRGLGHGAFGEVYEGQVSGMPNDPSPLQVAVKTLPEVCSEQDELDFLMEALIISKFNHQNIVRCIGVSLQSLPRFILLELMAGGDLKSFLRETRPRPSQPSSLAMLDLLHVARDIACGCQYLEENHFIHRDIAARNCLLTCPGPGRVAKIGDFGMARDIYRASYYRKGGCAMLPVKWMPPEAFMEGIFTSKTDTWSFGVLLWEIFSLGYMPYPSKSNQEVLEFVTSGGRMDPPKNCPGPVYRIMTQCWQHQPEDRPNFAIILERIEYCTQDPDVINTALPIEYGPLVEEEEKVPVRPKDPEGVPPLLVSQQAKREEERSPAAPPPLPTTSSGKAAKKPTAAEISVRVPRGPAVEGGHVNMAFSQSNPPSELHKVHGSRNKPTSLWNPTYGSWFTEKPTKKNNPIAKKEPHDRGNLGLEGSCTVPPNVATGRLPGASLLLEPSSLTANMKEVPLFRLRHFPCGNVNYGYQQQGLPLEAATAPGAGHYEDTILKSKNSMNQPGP
# MEASUREMENT PROTOCOL: alternate ALK protocol (33P-ATP filter-binding radiometric assay)
# Type: biochemical
# SETUP CONDITIONS: 250 μM KKKSPGEYVNIEFG substrate, [γ-33P-ATP], 40 minutes at room temperature, read-out: ALK inhibitory activities (IC50s (μM))
Listing of entries alongside the reported IC50.
# unit: µM | format: bare number

Check out these entries, answers already filled in.
MOLECULE: COc1cc(N2CCC(N)CC2)ccc1Nc1ncc(Cl)c(-c2c[nH]c3ccccc23)n1 [Example 1]
RECORDED RESULT: 0.004

MOLECULE: COc1cc(N2CCC(N3CCN(C)CC3)CC2)ccc1Nc1ncc(Cl)c(-c2c[nH]c3ccccc23)n1 [Example 10]
RECORDED RESULT: 0.006

Continue with the molecule presented below.
IN: // IC50 lookup, key: COc1cc(N2CCC(N3CCN(C)CC3)CC2)ccc1Nc1ncc(C)c(-c2c[nH]c3ccccc23)n1 [Example 9]
OUT: 0.019

====

# TARGET OR TEST SYSTEM: human ALK (Homo sapiens)
# Construct: GST (N); purchased Invitrogen, Carlsbad, Calif; (or prepared by AstraZeneca); host or cells: insect cells
# Sequence (Q9UM73 1058-1620): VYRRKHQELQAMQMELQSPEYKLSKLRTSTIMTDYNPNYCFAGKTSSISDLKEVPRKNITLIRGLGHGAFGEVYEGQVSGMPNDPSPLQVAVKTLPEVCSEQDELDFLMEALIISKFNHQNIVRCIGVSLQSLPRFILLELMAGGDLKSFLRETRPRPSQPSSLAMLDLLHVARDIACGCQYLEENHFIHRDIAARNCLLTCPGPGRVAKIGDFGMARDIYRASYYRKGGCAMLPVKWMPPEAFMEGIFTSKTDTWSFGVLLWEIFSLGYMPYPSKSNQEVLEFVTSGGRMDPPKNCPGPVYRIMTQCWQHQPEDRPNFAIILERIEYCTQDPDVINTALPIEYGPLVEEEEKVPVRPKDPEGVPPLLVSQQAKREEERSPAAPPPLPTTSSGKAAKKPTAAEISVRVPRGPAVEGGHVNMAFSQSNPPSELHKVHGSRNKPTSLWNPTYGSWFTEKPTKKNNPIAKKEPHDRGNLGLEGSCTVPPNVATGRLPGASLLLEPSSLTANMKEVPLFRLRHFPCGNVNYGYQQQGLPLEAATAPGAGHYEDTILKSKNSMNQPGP
# MEASUREMENT PROTOCOL: ALK kinase mobility shift assay (Caliper LC3000)
# Assay type: biochemical
# SETUP CONDITIONS: cumulative geometric means including test re-runs, some obtained since the priority filings; ATP 30 μM (Km) or 5 mM, not specified which; read-out: ALK Enzyme IC50 (μM)**
# Procedure: ALK kinase activity was determined by measuring the kinase's ability to phosphorylate a tyrosine residue within a peptide substrate using a mobility shift assay on a Caliper LC3000 reader (Caliper Life Sciences, Hopkinton, Mass.), which measures fluorescence of the phosphorylated and unphosphorylated substrate and calculates a ratiometric value to determine percent turnover. […]
Listing of entries alongside the reported IC50.
Please make sure the unit comes right after the number.

Check out these entries, answers already filled in.
COMPOUND: COc1cc(N2CC[C@H](N)[C@H](F)C2)ccc1Nc1ncc(Cl)c(-c2c[nH]c3ccccc23)n1
IC50: 0.03 µM

COMPOUND: COc1cc(N2CCC(N)C(C)(C)C2)ccc1Nc1ncc(Cl)c(-c2c[nH]c3ccccc23)n1 (stereo not shown)
IC50: 0.151 µM

COMPOUND: COc1cc(P2(=O)CCC(N)CC2)ccc1Nc1ncc(C)c(-c2c[nH]c3ccccc23)n1 (single isomer, unassigned) [Example 43]
IC50: 0.158 µM

Continue with the compound presented below.
IN: // IC50 lookup, key: COc1cc(N2CCC(N)C(F)C2)ccc1Nc1ncc(Cl)c(-c2c[nH]c3ccccc23)n1 (single isomer, unassigned) [Example 51]
OUT: 0.031 µM

Data credit: patent US8461170B2
